measurementProtocol: Example 1: cell number (hemocytometer) and viability (trypan blue)
Assay type: cell-based, Chinese hamster
recordedConditions: Chinese hamster, 34° C., 5 μM decitabine, day 3
metricName: viability at 3 day, 5 μM

# viability at 3 day, 5 μM of `Nc1ncn([C@H]2C[C@H](O)[C@@H](CO)O2)c(=O)n1` = 96.1%

====

measurementProtocol: Example 2: cell number and viability
Assay type: cell-based, Chinese hamster
recordedConditions: Chinese hamster, CHO cell line 25H9 producing IL-1R-II, 30° C., 15 μM decitabine, day 3
metricName: viability at 3 day, 15 μM (%)
Please give a number only; it is taken to be in %.

# viability at 3 day, 15 μM of `Nc1ncn([C@H]2C[C@H](O)[C@@H](CO)O2)c(=O)n1` = 88.9

====

measurementProtocol: Example 2: cell number and viability
Assay type: cell-based, Chinese hamster
recordedConditions: Chinese hamster, cell line 25H9 (CHO cells), 31° C., 10 μM decitabine, day 8
Experimental: About 2×10^6 cells of cell line 25H9 were inoculated into 30 milliliters of serum-free medium and incubated at the temperatures indicated in Table 1 in vented shake flasks. […] IL-1R-II protein titer was determined by ELISA assay. Cell number was determined by counting cells in a hemocytometer. Cell viability was determined by trypan blue staining and counting stained cells in a hemocytometer. […]
metricName: viability at 8 day, 10 μM
Put your answer as a value accompanied by its unit after it.

# viability at 8 day, 10 μM of `Nc1ncn([C@H]2C[C@H](O)[C@@H](CO)O2)c(=O)n1` = 63.5%

====

measurementProtocol: Example 1: cell number (hemocytometer) and viability (trypan blue)
Assay type: cell-based, Chinese hamster
recordedConditions: Chinese hamster, 31° C., 10 μM decitabine, day 0
metricName: viability at 0 day, 10 μM (%)
Please give a number only; it is taken to be in %.

# viability at 0 day, 10 μM of `Nc1ncn([C@H]2C[C@H](O)[C@@H](CO)O2)c(=O)n1` = 96.1

====

measurementProtocol: Example 1: cell number (hemocytometer) and viability (trypan blue)
Assay type: cell-based, Chinese hamster
recordedConditions: Chinese hamster, 31° C., 5 μM decitabine, day 10
metricName: viability at 10 day, 5 μM (%)
Please give a number only; it is taken to be in %.

# viability at 10 day, 5 μM of Nc1ncn([C@H]2C[C@H](O)[C@@H](CO)O2)c(=O)n1 [decitabine, 5-aza-2′-deoxycytidine] = 58.5

====

measurementProtocol: Example 2: cell number and viability
Format: cell-based, Chinese hamster
recordedConditions: Chinese hamster, CHO cell line 25H9 producing IL-1R-II, 30° C., 15 μM decitabine, day 0
metricName: viability at 0 day, 15 μM (%)
Please give a number only; it is taken to be in %.

# viability at 0 day, 15 μM of `Nc1ncn([C@H]2C[C@H](O)[C@@H](CO)O2)c(=O)n1` = 94.2

====

measurementProtocol: Example 2: cell number and viability
Assay type: cell-based, Chinese hamster
recordedConditions: Chinese hamster, cell line 25H9 (CHO cells), 32° C., 20 μM decitabine, day 6
metricName: viability at 6 day, 20 μM (%)
Please give a number only; it is taken to be in %.

# viability at 6 day, 20 μM of `Nc1ncn([C@H]2C[C@H](O)[C@@H](CO)O2)c(=O)n1` = 64.7

====

measurementProtocol: Example 2: cell number and viability
Type: cell-based, Chinese hamster
recordedConditions: Chinese hamster, cell line 25H9 (CHO cells), 32° C., 20 μM decitabine, day 8
metricName: viability at 8 day, 20 μM
Put your answer as a value accompanied by its unit after it.

# viability at 8 day, 20 μM of `Nc1ncn([C@H]2C[C@H](O)[C@@H](CO)O2)c(=O)n1` = 41.1%

====

measurementProtocol: Example 2: cell number and viability
Format: cell-based, Chinese hamster
recordedConditions: Chinese hamster, CHO cell line 25H9 producing IL-1R-II, 30° C., 15 μM decitabine, day 6
metricName: viability at 6 day, 15 μM
Put your answer as a value accompanied by its unit after it.

# viability at 6 day, 15 μM of Nc1ncn([C@H]2C[C@H](O)[C@@H](CO)O2)c(=O)n1 [decitabine, 5-aza-2′-deoxycytidine] = 85.9%

====

measurementProtocol: Example 2: cell number and viability
Format: cell-based, Chinese hamster
recordedConditions: Chinese hamster, CHO cell line 25H9 producing IL-1R-II, 30° C., 20 μM decitabine, day 6
metricName: viability at 6 day, 20 μM
Put your answer as a value accompanied by its unit after it.

# viability at 6 day, 20 μM of `Nc1ncn([C@H]2C[C@H](O)[C@@H](CO)O2)c(=O)n1` = 77%

====

measurementProtocol: Example 1: cell number (hemocytometer) and viability (trypan blue)
Assay type: cell-based, Chinese hamster
recordedConditions: Chinese hamster, 34° C., 5 μM decitabine, day 5
metricName: viability at 5 day, 5 μM

# viability at 5 day, 5 μM of Nc1ncn([C@H]2C[C@H](O)[C@@H](CO)O2)c(=O)n1 [decitabine, 5-aza-2′-deoxycytidine] = 80.3%

====

measurementProtocol: Example 2: cell number and viability
Format: cell-based, Chinese hamster
recordedConditions: Chinese hamster, cell line 25H9 (CHO cells), 31° C., 20 μM decitabine, day 3
Experimental: About 2×10^6 cells of cell line 25H9 were inoculated into 30 milliliters of serum-free medium and incubated at the temperatures indicated in Table 1 in vented shake flasks. […] IL-1R-II protein titer was determined by ELISA assay. Cell number was determined by counting cells in a hemocytometer. Cell viability was determined by trypan blue staining and counting stained cells in a hemocytometer. […]
metricName: viability at 3 day, 20 μM (%)
Please give a number only; it is taken to be in %.

# viability at 3 day, 20 μM of `Nc1ncn([C@H]2C[C@H](O)[C@@H](CO)O2)c(=O)n1` = 87.7

====

measurementProtocol: Example 1: cell number (hemocytometer) and viability (trypan blue)
Format: cell-based, Chinese hamster
recordedConditions: Chinese hamster, 31° C., 1 μM decitabine, day 3
metricName: viability at 3 day, 1 μM (%)
Please give a number only; it is taken to be in %.

# viability at 3 day, 1 μM of `Nc1ncn([C@H]2C[C@H](O)[C@@H](CO)O2)c(=O)n1` = 93.4

====

measurementProtocol: Example 1: cell number (hemocytometer) and viability (trypan blue)
Format: cell-based, Chinese hamster
recordedConditions: Chinese hamster, 31° C., 5 μM decitabine, day 3
metricName: viability at 3 day, 5 μM (%)
Please give a number only; it is taken to be in %.

# viability at 3 day, 5 μM of Nc1ncn([C@H]2C[C@H](O)[C@@H](CO)O2)c(=O)n1 [decitabine, 5-aza-2′-deoxycytidine] = 93.6

====

measurementProtocol: Example 1: cell number (hemocytometer) and viability (trypan blue)
Format: cell-based, Chinese hamster
recordedConditions: Chinese hamster, 31° C., 1 μM decitabine, day 5
metricName: viability at 5 day, 1 μM (%)
Please give a number only; it is taken to be in %.

# viability at 5 day, 1 μM of `Nc1ncn([C@H]2C[C@H](O)[C@@H](CO)O2)c(=O)n1` = 94.8

====

measurementProtocol: Example 2: cell number and viability
Type: cell-based, Chinese hamster
recordedConditions: Chinese hamster; 31° C., 0.5 mM butyrate, day 0
Protocol: About 2×10^6 cells of cell line 25H9 were inoculated into 30 milliliters of serum-free medium and incubated at the temperatures indicated in Table 1 in vented shake flasks. […] IL-1R-II protein titer was determined by ELISA assay. Cell number was determined by counting cells in a hemocytometer. Cell viability was determined by trypan blue staining and counting stained cells in a hemocytometer. […]
metricName: viability at 0 day, 0.5 mM
Put your answer as a value accompanied by its unit after it.

# viability at 0 day, 0.5 mM of CCCC(=O)[O-].[Na+] [butyrate, sodium butyrate] = 94.2%

====

measurementProtocol: Example 1: cell number (hemocytometer) and viability (trypan blue)
Assay type: cell-based, Chinese hamster
recordedConditions: Chinese hamster, 31° C., 1 μM decitabine, day 10
metricName: viability at 10 day, 1 μM (%)
Please give a number only; it is taken to be in %.

# viability at 10 day, 1 μM of `Nc1ncn([C@H]2C[C@H](O)[C@@H](CO)O2)c(=O)n1` = 63.9

====

measurementProtocol: Example 1: cell number (hemocytometer) and viability (trypan blue)
Assay type: cell-based, Chinese hamster
recordedConditions: Chinese hamster, 34° C., 1 μM decitabine, day 10
metricName: viability at 10 day, 1 μM (%)
Please give a number only; it is taken to be in %.

# viability at 10 day, 1 μM of Nc1ncn([C@H]2C[C@H](O)[C@@H](CO)O2)c(=O)n1 [decitabine, 5-aza-2′-deoxycytidine] = 21.4

====

measurementProtocol: Example 1: cell number (hemocytometer) and viability (trypan blue)
Type: cell-based, Chinese hamster
recordedConditions: Chinese hamster, 34° C., 1 μM decitabine, day 3
metricName: viability at 3 day, 1 μM (%)
Please give a number only; it is taken to be in %.

# viability at 3 day, 1 μM of `Nc1ncn([C@H]2C[C@H](O)[C@@H](CO)O2)c(=O)n1` = 93.6

// provenance: patent US6890736B1
